tested on: Aedes aegypti larvae; assay: larval motility relative to same well at 0 h (fraction); higher = more motile (less active compound), active = 0.4 or less; settings: 10 µM; 24 h
property: larval motility
Keep it simple and answer with nothing but the number.

Solved entries (count: 3):
OC(Cn1cncn1)(Cn1cncn1)c1ccc(F)cc1F; 0.875
[N-]=[N+]=N[C@H]1C[C@H](n2ccc(=O)[nH]c2=O)O[C@@H]1CO; 0.881
Cc1c(N)cccc1Cn1ccc(OCCc2cccs2)cc1=O; 0.875

Recorded larval motility of `CCNC(=O)Nc1cn2c(-c3ncc(CC)cn3)cc(-c3cccnc3)cc2n1` , please.
0.894

* * *

system: Aedes aegypti larvae; assay: larval motility relative to same well at 0 h (fraction); higher = more motile (less active compound), active = 0.4 or less; conditions: 10 µM; 24 h
Quick reference for larval motility among some molecules
Keep it simple and answer with nothing but the number.

Solved entries (count: 2):
CC[C@@H]1C(=O)OC[C@@H]1Cc1cncn1C; 0.972
CC(C)(C)NC(=O)N[C@H](C(=O)N1C[C@H]2[C@@H]([C@H]1C(=O)NC(CC1CCC1)C(=O)C(N)=O)C2(C)C)C(C)(C)C (stereo partly drawn); 0.813

# context switch: different molecule, same larval motility
Request: larval motility, test system Aedes aegypti larvae, entry `NC(=O)C(c1ccccc1)(c1ccccc1)[C@H]1CCCN(CCc2ccc3c(c2)CCO3)C1`
0.78

* * *

tested on: Aedes aegypti larvae; assay: larval motility relative to same well at 0 h (fraction); higher = more motile (less active compound), active = 0.4 or less; settings: 10 µM; 24 h
Quick reference for larval motility among some compounds
Keep it simple and answer with nothing but the number.

C=CCc1cc(Cc2cnc(N)nc2N)cc(OC)c1O; 1.18
O=C(Nc1ncc(Cc2cccc3ccccc23)s1)C1CCCCC1; 1.56
Cc1ccc(C)c(OCCCCCCN2C[C@H](O)[C@@H](O)[C@H](O)[C@H]2CO)c1; 0.552

Recorded larval motility of `C=C[C@]1(C)C[C@@H](OC(=O)CS[C@@H]2C[C@H]3CC[C@@H](C2)N3C)[C@]2(C)[C@H](C)CC[C@]3(CCC(=O)[C@H]32)[C@@H](C)[C@@H]1O` , please.
0.545

* * *

test system: Aedes aegypti larvae; test: larval motility relative to same well at 0 h (fraction); higher = more motile (less active compound), active = 0.4 or less; details: 10 µM; 24 h
Quick reference for larval motility among some compounds
Keep it simple and answer with nothing but the number.

Solved entries (count: 5):
Cc1cc(-c2ccccc2)c(C(=O)C(=O)Nc2ccc(N3CCN(c4ncc(F)cn4)CC3)cc2)n1C; 0.529
Cc1nc(Nc2ccc(F)cc2)nc(N2CCc3ccccc3C2C)c1C (stereo unspecified); 0.644
COc1nc2ccc(Br)cc2cc1[C@@H](c1ccccc1)[C@@](O)(CCN(C)C)c1cccc2ccccc12; 0.679
N=C(N)NCCCCC(=O)Nc1cc(C(F)(F)F)cc(NC(=O)c2cc(C(=O)Nc3cc(C(F)(F)F)cc(NC(=O)CCCCNC(=N)N)c3O[C@@H]3CCNC3)ncn2)c1O[C@@H]1CCNC1; 0.764
CO[C@@]1(NC(=O)Cc2cccs2)C(=O)N2C(C(=O)O)=C(COC(N)=O)CS[C@@H]21; 1.17

# context switch: different compound, same larval motility
Request: larval motility, test system Aedes aegypti larvae, entry Cc1c(OCC(F)(F)F)ccnc1CS(=O)c1nc2ccccc2[nH]1 (stereo unspecified)
1.38

Reference for the values: the supplement of paper PMC8540655
